Method notes: Hydrophobicity, Log P of the compound
Type: physicochemical
Condition set: octanol/water
Assignment: determine reported logP for the given compounds.
I only need the number, thanks.

Query :: Fill in: logP of CC(=O)NC(CCc1ccc(C#C[Si](C)(C)C)cc1)(COC(C)=O)COC(C)=O is ___
Result :: 4.07

Query :: Given CC(=O)NC(CCc1ccc(C#CC#C[Si](C)(C)C)cc1)(COC(C)=O)COC(C)=O , state its recorded logP.
Result :: 4.97

Query :: Suppose we examine the compound CC(=O)NC(CCc1ccc(C#CC#CC#C[Si](C)(C)C)cc1)(COC(C)=O)COC(C)=O ; what logP value has been reported?
Result :: 5.9
